System: MRSA 31
Test: Antibacterial activity (MIC) against MRSA 31
Assay type: cell-based, methicillin-resistant Staphylococcus aureus
Settings: Staphylococcus aureus, MRSA, MRSA 31, 10^6 cfu/mℓ; read-out: antibacterial activities (MIC)
Reported MIC values follow for various compounds

Provide the documented MIC with MRSA 31 as the system for C[C@H](O)[C@@H]1C(=O)N2C(C(=O)O)=C(SCc3ccccc3)S[C@H]12 [Ex. 42]
3.13 µg/mL

Provide the documented MIC with MRSA 31 as the system for C[C@H](O)[C@@H]1C(=O)N2C(C(=O)O)=C(SCC(=O)NCc3ccccc3)S[C@H]12 [Ex. 13]
12.5 µg/mL

Provide the documented MIC with MRSA 31 as the system for C[C@H](O)[C@@H]1C(=O)N2C(C(=O)O)=C(S[C@H]3CCN(CC(=O)c4ccccc4)C3)S[C@H]12 [Ex. 88]
6.25 µg/mL

Further cases:
Provide the documented MIC with MRSA 31 as the system for CCSC1=C(C(=O)O)N2C(=O)[C@@H]([C@H](C)O)[C@H]2S1 [Ex. 41]
12.5 µg/mL

Provide the documented MIC with MRSA 31 as the system for C[C@H](O)[C@@H]1C(=O)N2C(C(=O)O)=C(SC3CCc4ccccc43)S[C@H]12 (some centres unmarked) [Ex. 81]
3.13 µg/mL

Provide the documented MIC with MRSA 31 as the system for C[C@H](O)[C@@H]1C(=O)N2C(C(=O)O)=C(SC3Cc4ccccc4C3)S[C@H]12 [Ex. 71]
3.13 µg/mL

Provide the documented MIC with MRSA 31 as the system for CSC1=C(C(=O)O)N2C(=O)[C@@H]([C@H](C)O)[C@H]2S1 [Ex. 40]
12.5 µg/mL

Provide the documented MIC with MRSA 31 as the system for CC(=N)N1CC[C@H](SC2=C(C(=O)O)N3C(=O)[C@H]([C@H](C)F)[C@H]3S2)C1 [Ex. 106]
3.13 µg/mL

Attribution: patent EP0774465A1
